These measurements were taken from the supplement of paper PMC9170038.

apparent KD of MS2 coat protein values by entry
Test system: MS2 coat protein
Test: apparent KD of MS2 coat protein; designed switch direction (-1 OFF switch, 1 ON switch): -1; higher = weaker reporter binding
Details: input ligand: none
Quick reminder: number only, in nM, skip the unit.

Worked cases, answers included:
{"Input Sequence": "AACAGAUGAGGAUAUACACGAGGAGUGAUACCGUAUGCCAGACAUGAGGAUCACCCAUGUAGAAGGCAUAAUAG [Celeated] (Eterna round: R97, puzzle: Exclusion 2)", "Observed Measurement": 12.4}
{"Input Sequence": "UGAUCUAGCGGAGGAUAUACAUGAGGAUCACCCAUGUAAGUCGCCUUACCGUAGUGAAGCAUCAUGUAGAAGGCCGCUAGAUCU [MOD4 ENG2 3.62 by JL (unstable but ms2 present in dot)] (Eterna round: R96, puzzle: Exclusion NG 2)", "Observed Measurement": 57.3}
{"Input Sequence": "AAUAAACAUGAGGAUCACCCAUGUGAGGAUAUACAGAUUAUAAGAAAAAAAAAAAAAAGUAGAAGGCACAUAUA [Default title] (Eterna round: R96, puzzle: Exclusion 1)", "Observed Measurement": 37.6}

Ask: Provide apparent KD of MS2 coat protein value for the following sequence: AAGAAACAUGAGGAUCACCCAUGUGAGGAUAUGGCCCGCCCGGCGUAAGCAAAAUAAAUCAGAAGGCACAAAGG [salish99_ex1_r4_008] (Eterna round: R97, puzzle: Exclusion 1)
Result: 47.2

Ask: Provide apparent KD of MS2 coat protein value for the following sequence: ACAUGAGGAUCACCCAUGUAAACAUAAUGGCUCAUGUAGAGUCAGGAUAUGCGUGGCGAACAACCGCAGAAGGGACAAGACUGG [Deportation 27 - Jieux - Exclusion NG 3] (Eterna round: R96, puzzle: Exclusion NG 3)
Result: 29

Ask: Provide apparent KD of MS2 coat protein value for the following sequence: UAGAUGUGAGGAUAUACAUGAAUGCAGGAUCGUGUGGUGCUACAUGAGGAUCACCCAUGUAGAAGGCACGUCUU [Mod 9 R3 JL-ex2-2.29 - Jieux - Exclusion 2] (Eterna round: R97, puzzle: Exclusion 2)
Result: 13.9

Ask: Provide apparent KD of MS2 coat protein value for the following sequence: AUGCUCCGUGUAGGAUAUCGCCGCACCACCCGGCGAGAAGGACAUGAGGAUCACCCAUGUAUGUUAUUAUCACGUGUGGCGCGC [Design 42] (Eterna round: R96, puzzle: Exclusion NG 1)
Result: 13.6

Ask: Provide apparent KD of MS2 coat protein value for the following sequence: CCAUGUCCAGAGGAUAUGUAGCGGAUAACCGCAACAGAAGGCUGGACAUGAGGAUCACCCAUGUGCGCCUUCCA [Vege] (Eterna round: R97, puzzle: Exclusion 6)
Result: 534

Ask: Provide apparent KD of MS2 coat protein value for the following sequence: CGGCAUGUAGAAGGAUAUCUGCACGAUUAGUGCAGAGAAGGUCUAACAUGAGGAUCACCCAUGUAGAUCAUUAACCGAUUAAUU [ENG1/8-A1] (Eterna round: R96, puzzle: Exclusion NG 1)
Result: 12

Ask: Provide apparent KD of MS2 coat protein value for the following sequence: AAUUUACAUGAGGAUCACCCAUGUGAGGAUAUGGUUUCGCUGGCCGUAGCCAGUGGAACCAGAAGGCGCAUGAU [Mat - Exclusion 1 - JL Mod - D12] (Eterna round: R97, puzzle: Exclusion 1)
Result: 65.2

Ask: Provide apparent KD of MS2 coat protein value for the following sequence: UUCCCACAUGAGGAUCACCCAUGUGAGGAUAUGGAGCGCGACCGCGCGGUCGCGUACACCAGAAGGCGCAUGAU [1st #80] (Eterna round: R97, puzzle: Exclusion 1)
Result: 16.2

Ask: Provide apparent KD of MS2 coat protein value for the following sequence: AUCAUGUAAGGAUAUCGUGCAAGUUUCAAAAGAGGCUUGUGCGAGAAGGUACAUGAGGAUCACCCAUGUAGGUU [Omei Ex4 B10] (Eterna round: R97, puzzle: Exclusion 4)
Result: 584

Ask: Provide apparent KD of MS2 coat protein value for the following sequence: AGUAUCUGAGGAUAUUGAGUUAUCUACAUGAGGAUCACCCAUGUUGUAUGUGUAGAAGCACGAGAAGGCAGAUACA [Eternabot (L2) Solution 1] (Eterna round: R97, puzzle: Exclusion 5)
Result: 102

Ask: Provide apparent KD of MS2 coat protein value for the following sequence: AACGAGUGAGGAUAUCUUGACGGUUUGCAUCAGGCCCUCACAGAGAAGGCACUUGAGGAUCACCCAAGUGACCA [Eredgeinus] (Eterna round: R97, puzzle: Exclusion 4)
Result: 14.2
